Measured apparent KD of MS2 coat protein by item
# Test system: MS2 coat protein
# experiment description: apparent KD of MS2 coat protein; designed switch direction (-1 OFF switch, 1 ON switch): -1; higher = weaker reporter binding
# experimental parameters: input ligand: none
// note: answer is a bare numeric in nM

UUUUUAGUGCUUUUUAAGUACAUGAGGAUCACCCAUGUACUUGUCUGGUGGUCCGGACAAGCUUUUUGCUCGUCUAG [Sensor v3 - turn-off variant 1 - 3] (Eterna round: R96, puzzle: Sensor v3, turn-off variant 1) ... 35.8

# context switch: different sequence, same apparent KD of MS2 coat protein
Value of apparent KD of MS2 coat protein reported for the sequence UAUUAGCAAGCAACUGGGUACAUGAGGAUCACCCAUGUGCUCGUCUUAUAAGGUACUGUGACGAAAGUUACGGUACC [mod--Eli115] (Eterna round: R97, puzzle: Sensor, turn-off variant 1) is 17.4

---

# Test system: MS2 coat protein
# experiment description: apparent KD of MS2 coat protein; designed switch direction (-1 OFF switch, 1 ON switch): 1; higher = weaker reporter binding
# experimental parameters: input ligand: FMN 200 uM
quantity: apparent KD of MS2 coat protein (nM)
Kindly provide the numeric value in nM only, without the unit symbol.

Example entries and their recorded answers appear below.
UUUUUGAUCCGAGGAUAUCCUUUUUUCUUACAUGAGGAUCACCCAUGUAAAGGGAUUGAGUUGUAGGAGAAGGCGGUUUUUGUU [JR_SSNG2_Sub059] (Eterna round: R96, puzzle: Same State NG 2) ... 19.8
UUGCUCGUGUGAGGAUAUGCCGCCGUUUCGGCUGCAGAAGGUACUCUAAUACAUGAGGAUCACCCAUGUCUCUGUUGUUUCGUG [salish99_SSNG1_r04_935] (Eterna round: R96, puzzle: Same State NG 1) ... 86.7
GGAGCCAAGGCAGGAUAUUCAUAUUAACAACAUGAGGAUCACCCAUGUAAGGCCAGAAGGCCUUGGGAGAAGGGCCAUGGCUCG [Xeonanis - 13 mod4] (Eterna round: R96, puzzle: Same State NG 2) ... 26.2

Now turn to the next sequence.
Case GGUCCGGCCUGAGCUGGACCGGAGCAUGUACAUGAGGAUCACCCAUGUCAUGUACAGGCUUCUUGCUCGUCUUGUUG [JL-shm-2.16 JL Mod] (Eterna round: R96, puzzle: Sensor for hsa-mir-208a) , MS2 coat protein, apparent KD of MS2 coat protein recorded as 282

---

# System: K4 kissing-loop RNA reporter
# experiment description: apparent KD of K4 kissing-loop reporter; higher = weaker reporter binding
# experimental parameters: Eterna round: R107; input ligand: FMN 200 uM
quantity: apparent KD of K4 kissing-loop reporter

Field: example entries. Status: answers known.
UGAUACCAGGCGGCCGCCACUCCUGCAGGUCAAAGACCUGUGAAGCUGGUUCUCCAGUGAUGUUGGAGGACCGGGCCUGGUAUCU [FiskerMod 27 - Jieux - Exclusion - Tryptophan B] ... 202 nM
AAUAAAAUCACGGCCGCCACUGAUAUCCAUAUUAGGAGUGAUGUUCCUAUGACUAUAUAAUUUAACAGGACCGGGUGAAUAUUUA [JR_SSTryptoB_Sub024] ... 104 nM

Here is another sequence to look at.
Recorded apparent KD of K4 kissing-loop reporter (sequence UGUCAUUGGUCGGCCGCCACUUCAUGUAGAGUGAUGUUUUGUAGGACGGAUCGAAAGAUCUGUCGAAGGACCGGGACCGAUGACU [FiskerMod 15 - Jieux - Same State - Tryptophan B] ): 233 nM

---

# Tested on: MS2 coat protein
# experiment description: apparent KD of MS2 coat protein; designed switch direction (-1 OFF switch, 1 ON switch): -1; higher = weaker reporter binding
# experimental parameters: input ligand: FMN 200 uM
quantity: apparent KD of MS2 coat protein (nM)
Give the value in nM but do not write nM after it.

ACGUUAGGAGGAUAUAGAAUUUUAGACAUGAGGAUCACCCAUGUCCUAUGUCAUGAGAGGCUAGAAGGCCUAGUUU [Eternabot (L2) Solution 51] (Eterna round: R97, puzzle: Exclusion 5) ... 142
CAGCCCUGAGGAUAUCCAUCCUCGUACAUGAGGAUCACCCAUGUCUCCCUCUGGGCUUUCGGAGAAGGCAGGUAUC [Megrez-6.1] (Eterna round: R97, puzzle: Exclusion 5) ... 743

We next turn to a different sequence, shown below.
apparent KD of MS2 coat protein for UAGCAAGCAAUAAGAUCCCACAUGAGGAUCACCCAUGUGCUCGUCUUAUAAAAGGUUUCGACGAAAACGUCGAGACC [Eli 91 v28] (Eterna round: R97, puzzle: Sensor, turn-off variant 1) is 19.8

---

# Tested on: MS2 coat protein
# experiment description: apparent KD of MS2 coat protein; designed switch direction (-1 OFF switch, 1 ON switch): -1; higher = weaker reporter binding
# experimental parameters: input ligand: none
apparent KD of MS2 coat protein listing for selected sequences.
Please respond with the number in nM and leave the unit unwritten.

Examples with answers:
CGUCAGUGAGGAUAUGGUAACAUUUACAUGAGGAUCACCCAUGUUUCUUGGGACUAAAUACUAGAAGGCACUGACG [JR_Ex5_Sub032] (Eterna round: R97, puzzle: Exclusion 5) ... 15
UUUUGACAUGAGGAUCACCCAUGUGAGGAUAUGGCUUGUGGCGCGUCUGUGUGGCGGGUUAGAAGGCGCGUGCG [-24.6, -21.7 kcal, A 16%] (Eterna round: R97, puzzle: Exclusion 1) ... 38.3

Now examine the next entry.
Form: sequence = AAAUUGGUAGAGGAUAUCGUACAGGAAACGAUGCGAGAAGGCUGCACAUGAGGAUCACCCAUGUUUAGUUGCGA [EX6 #42] (Eterna round: R97, puzzle: Exclusion 6) ; apparent KD of MS2 coat protein = 19.4

---

# Tested on: MS2 coat protein
# experiment description: apparent KD of MS2 coat protein; designed switch direction (-1 OFF switch, 1 ON switch): -1; higher = weaker reporter binding
# experimental parameters: Eterna round: R95; input ligand: microRNA oligo, concentration not stated
apparent KD of MS2 coat protein listing for selected sequences.
Form entry: value (nM) — number only.

Solved entries:
CCUAUGUGAGGAUAUCACUGGUCUUCUCACUGGAUGACCAGUGAGAAGGCACAUGAGGAUCACCCAUGUCGGUG [Ex4 - 3 - 50] (puzzle: Exclusion 4) ... 312
AGUGCUAACACGAAAGUGUUAGUACAAUAAGCUUGUGAAACAUGAGGAUCACCCAUGUCCUCAUAAGCUCGUCUUAU [salish99_TOv2_r3_014] (puzzle: Sensor v3, turn-off variant 2) ... 651
UUAUAAAGUGUGAGGAUAUGCUGGUCGAUAGAUCAGCAGAAGGCACAUGAGGAUCACCCAUGUAAUAUAUUUUA [Mat - Exclusion 4 - JL Mod - D45] (puzzle: Brourd's mod of Exclusion 4) ... 50

Lab note: CUUUUGUGAGGAUAUCAGUAGUAAAUAAAUAAAAUUACUACUGAGAAGGCACAUGAGGAUCACCCAUGUUCCUU [salish99_ex3_r3_089] (puzzle: Exclusion 4) gave apparent KD of MS2 coat protein of 15.3

---

# System: K4 kissing-loop RNA reporter;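 further: bound reporter read as fluorescence of individual clusters on recovered sequencing chips by microscopy, with normalized cluster intensities fitted with a binding model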
# experiment description: apparent KD of K4 kissing-loop reporter; higher = weaker reporter binding
# experimental parameters: Eterna round: R107; input ligand: tryptophan 2.4 mM
# binarize apparent KD of K4 kissing-loop reporter: threshold 300 nM inclusive, high side 1 (yes), low side 0 (no)

Worked examples follow.
UUUAAAUAUAGUGAUGUUAUAUAACAAUGACGAGGACCGGUACGGCCGCCACUCGAGAGAGAUAAUGAUAAAAUACAUAAUUUUC [AstrosSSTrypA#2] ... 1 (yes)
UGAUACCAGACGGCCGCCACUGCGCCAGUCAAUGACUGAGCGCGGUGGCGCUCAGUGAUGUUGUGCAGGACCGGGUCUGGUAUCU [Mod of Eli's TrypBX 8 v6] ... 1 (yes)
CGAGUGAUGUUCGUUUUUUUAUUUUUUUGACAGGAUAUGCGGAAACGCAGAAGGGUCACCUUUGAGUUAAAAGAAUUUAAAUUAU [Ex FMN A 23] ... 0 (no)
CAUCUGGACCAAGGAUAUGUGGGCAUAAUAAAAUUACCACCUUAUUUGCAGUAAGUGAUGUUUAACACAGAAGGUGGACAUAGAC [theeternabot_exclusion_KL_FMN_B_10] ... 1 (yes)
AAGUCUCGUUAAUUCGUGGUUUCGAUCGAUACCAGUAGCGAGAGGUACCCUUGGCAGCGAAAUGAGUGAUGUUCAUGAAAGAAGA [KL-XTheoA11] ... 0 (no)
AAUUCAGUGAUGUUGGAAGGCAGGCGGGAUACCAGCGGAGAAUAACGCCCUUGGCAGCCCAUAUAUCCCAAAUAGAUAAUAGUUC [Same State - Theophylline A (Freestyle 3)] ... 1 (yes)
GUAUCGCUAGGAGGAUAUUUCAAUUUGACUCUUUGAGUUAUUACGGAGUGAUGUUCCGAUUUACGGAAAGAAGGCCUAGUGAUAC [FMN B 12] ... 0 (no)
AAAUCGUUCAGAAGGAGCGUGAAUUAUUCUUAAUUAUAUUAUACGAGUGAUGUUCGUGUUUCACAGGUAGGUCGCUGAUCGAUAA [JR_SSArginiB_Sub005] ... 0 (no)
UGGGUGUAGUGAUGUUAUAUAGAGAGUGAUACCAGUUUAGAGAAGAACCCUUGGCAGCAUAGAAGAGUAUCAUUGGAGAAGAAUG [ExTheophyl.As] ... 1 (yes)
CUUCGAUUAACGGAUACCAGUCACUUGGGAGCCACACACAAGUGAGUGAUGUUCACUUGUGACCCUUGGCAGCCGUUAGUCGAAG [#05 K4 Theophylline B Exclusion] ... 0 (no)

Task item: Determine whether measured apparent KD of K4 kissing-loop reporter meets or exceeds 300 nM for AGGGAACGCACGGAUACCAGACUCAUAGUGAUGUUGUGGGUAUAAAUUAGCGCAUACACAGUCCCUUGGCAGCCGCUGAAUGGCC [theeternabot_exclusion_KL_Theo_B_1]
Reply: 1 (yes)
